assay procedure: Solubility in different solvents
Assay type: physicochemical
applied conditions: Mulgofen:water (5:95), aqueous with cosolvent or surfactant or cyclodextrin; read-out: Solubility
Procedure: The solubility of (11β,17β)-11-(1,3-benzodioxol-5-yl)-17-hydroxy-17-(1-propynyl)estra-4,9-dien-3-one is determined in different solvents. These solutions can be of use for clinical treatment with the advantages as mentioned above.
assay endpoint: solubility (µg/mL)
One number for each entry, in µg/mL.

Query: Recorded solubility for CC#C[C@]1(O)CC[C@H]2[C@@H]3CCC4=CC(=O)CCC4=C3[C@@H](c3ccc4c(c3)OCO4)C[C@@]21C , please?
Result: 2000

====

assay procedure: Solubility in different solvents
Assay type: physicochemical
applied conditions: acetone, organic solvent or mixture; read-out: Solubility
Description: The solubility of (11β,17β)-11-(1,3-benzodioxol-5-yl)-17-hydroxy-17-(1-propynyl)estra-4,9-dien-3-one is determined in different solvents. These solutions can be of use for clinical treatment with the advantages as mentioned above.
assay endpoint: solubility

Query: Requested field: solubility. Item: CC#C[C@]1(O)CC[C@H]2[C@@H]3CCC4=CC(=O)CCC4=C3[C@@H](c3ccc4c(c3)OCO4)C[C@@]21C
Result: > 10000 µg/mL

====

assay procedure: Solubility in different solvents
Assay type: physicochemical
applied conditions: ethanol:PEG 400:propylene glycol (10:50:40), organic solvent or mixture; read-out: Solubility
assay endpoint: solubility

Query: Data request, read-out solubility, for CC#C[C@]1(O)CC[C@H]2[C@@H]3CCC4=CC(=O)CCC4=C3[C@@H](c3ccc4c(c3)OCO4)C[C@@]21C [ORG 34517]
Result: 28.6 mg/mL

====

assay procedure: Solubility in different solvents
Type: physicochemical
applied conditions: Glycoferol, organic solvent or mixture; read-out: Solubility
assay endpoint: solubility (mg/mL)
Numbers only, in mg/mL.

Query: For the molecule CC#C[C@]1(O)CC[C@H]2[C@@H]3CCC4=CC(=O)CCC4=C3[C@@H](c3ccc4c(c3)OCO4)C[C@@]21C , what solubility is on record?
Result: 118

====

assay procedure: Solubility in different solvents
Type: physicochemical
applied conditions: methanol, organic solvent or mixture; read-out: Solubility
assay endpoint: solubility

Query: Looking for the measured solubility of CC#C[C@]1(O)CC[C@H]2[C@@H]3CCC4=CC(=O)CCC4=C3[C@@H](c3ccc4c(c3)OCO4)C[C@@]21C , can you help?
Result: > 10000 µg/mL

====

assay procedure: Solubility in different solvents
Format: physicochemical
applied conditions: PEG 400:water (60:40), aqueous with cosolvent or surfactant or cyclodextrin; read-out: Solubility
assay endpoint: solubility
I'd appreciate it if you included the unit after the number.

Query: # query: solubility of entry CC#C[C@]1(O)CC[C@H]2[C@@H]3CCC4=CC(=O)CCC4=C3[C@@H](c3ccc4c(c3)OCO4)C[C@@]21C
Result: 0.6 µg/mL
